For each entry below, report its DC50 value.
biological target: SHP2 protein (Homo sapiens, UniProt Q06124); test: Degradation activity on SHP2 protein in MIA Paca-2 cells (Western blot, DC50); format: cell-based; parameters: endogenous in cells; host or cells: MIA Paca-2 cells; conditions: read-out: Degradation activity for differenct cell lines MIA Paca-2 (DC50)
Sequence (Q06124 whole entry): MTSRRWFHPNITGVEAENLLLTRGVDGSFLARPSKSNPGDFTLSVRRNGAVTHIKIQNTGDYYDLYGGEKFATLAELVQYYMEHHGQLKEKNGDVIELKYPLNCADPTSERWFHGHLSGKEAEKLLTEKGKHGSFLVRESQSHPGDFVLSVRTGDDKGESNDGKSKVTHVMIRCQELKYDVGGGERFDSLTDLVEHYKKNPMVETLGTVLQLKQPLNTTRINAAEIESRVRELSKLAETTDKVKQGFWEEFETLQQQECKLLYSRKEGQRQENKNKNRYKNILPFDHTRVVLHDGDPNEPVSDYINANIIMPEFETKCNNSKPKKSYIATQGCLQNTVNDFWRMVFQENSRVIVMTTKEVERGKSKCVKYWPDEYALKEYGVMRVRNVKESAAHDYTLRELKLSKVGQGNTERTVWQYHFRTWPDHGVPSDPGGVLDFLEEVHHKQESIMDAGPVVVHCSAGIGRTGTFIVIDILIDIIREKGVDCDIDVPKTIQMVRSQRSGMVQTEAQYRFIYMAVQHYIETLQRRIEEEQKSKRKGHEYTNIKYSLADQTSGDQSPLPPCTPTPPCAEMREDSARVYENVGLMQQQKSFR
Where a name gives a salt, the structure may show the parent alone.

Below, 10 compounds whose answers are already recorded.
CC1(N)CCN(c2cnc(Sc3cccc(NC(=O)c4ccc(N5CCC(N6CCN(c7ccc(C(=O)NCc8ccc9c(c8)CN(C8CCC(=O)NC8=O)C9=O)nn7)CC6)CC5)cc4)c3)cn2)CC1 (centres unmarked) [Compound 389]: < 100 nM
Cc1cc(C2=CCN(C3CCN(c4ccc(C(=O)Nc5cccc(Sc6cnc(N7CCC8(CC7)CO[C@@H](C)[C@H]8N)cn6)c5)cc4F)CC3)CC2)ncc1C(=O)NCc1ccc2c(c1)CN(C1CCC(=O)NC1=O)C2=O (some centres unmarked) [Compound 488]: < 100 nM
Cc1ncsc1-c1ccc([C@H](C)NC(=O)[C@@H]2C[C@@H](O)CN2C(=O)[C@@H](NC(=O)c2cnc(N3CCN(C4CC(C(=O)Nc5cccc(Sc6cnc(N7CCC8(CC7)CO[C@@H](C)[C@H]8N)cn6)c5)C4)CC3)nc2)C(C)(C)C)cc1 (some centres unmarked) [Compound 294, hydrochloride]: < 100 nM
CC1(N)CCN(c2cnc(Sc3cccc(NC(=O)CCCCCCCO[C@@H]4CN(c5ccc(C(=O)NCc6ccc7c(c6)CN(C6CCC(=O)NC6=O)C7=O)nn5)CC4(F)F)c3)cn2)CC1 (some centres unmarked) [Compound 178]: < 100 nM
Cc1cc(C(=O)NCc2ccc3c(c2)CN(C2CCC(=O)NC2=O)C3=O)ncc1C1=CCN(C2CCN(c3ccc(C(=O)Nc4cccc(Sc5cnc(N6CCC(C)(N)CC6)cn5)c4)cc3F)CC2)CC1 (centres unmarked) [Compound 470]: 100 to 1000 nM
CC1(N)CCN(c2cnc(Sc3cccc(NC(=O)C4CCC(N5CC=C(c6ccc(C(=O)NCc7ccc8c(c7)CN(C7CCC(=O)NC7=O)C8=O)nc6)CC5)CC4)c3)cn2)CC1 (single isomer, unassigned) [Compound 300]: > 1000 nM
Cc1cc(N2CCC(N3CC=C(c4ccc(C(=O)NCc5ccc6c(c5)CN(C5CCC(=O)NC5=O)C6=O)nc4)CC3)CC2)ccc1C(=O)Nc1cccc(Sc2cnc(N3CCC(C)(N)CC3)cn2)c1 (centres unmarked) [Compound 421]: < 100 nM
CC1(N)CCN(c2cnc(Sc3cccc(NC(=O)CCCCCCN4CC5(CCN(c6ccc(C(=O)NCc7ccc8c(c7)CN(C7CCC(=O)NC7=O)C8=O)nc6)C5)C4)c3)cn2)CC1 (centres unmarked) [Compound 186]: < 100 nM
CC1(N)CCN(c2cnc(Sc3cccc(NC(=O)c4ccc(N5CCC(N6CCN(c7nnc(C(=O)NCc8ccc9c(c8)CN(C8CCC(=O)NC8=O)C9=O)cc7Cl)CC6)CC5)nc4)c3)cn2)CC1 (centres unmarked) [Compound 492]: < 100 nM
COC(=O)NC1(C)CCN(c2cnc(Sc3cccc(NC(=O)c4ccc(N5CCC(N6CC=C(c7ccc(C(=O)NCc8ccc9c(c8)CN(C8CCC(=O)NC8=O)C9=O)nc7)CC6)CC5)c(F)c4)c3)cn2)CC1 (centres unmarked) [Compound 424]: > 1000 nM

IN: API: value(readout=DC50, system=SHP2 protein (Homo sapiens, UniProt Q06124)) for record NC1CCN(c2cnc(Sc3cccc(NC(=O)c4ccc(N5CCC(N6CC=C(c7ccc(C(=O)NCc8ccc9c(c8)CN(C8CCC(=O)NC8=O)C9=O)nn7)CC6)CC5)cc4)c3)cn2)CC1F (centres unmarked) [Compound 376]
OUT: > 1000 nM
